# Tested on: MvaT
# assay details: PBM 8-mer E-score (mean of HK and ME arrays) (E-score (dimensionless, -0.5 to 0.5)); higher = stronger relative binding preference
Whole data set: some 33,000 sequences, median “E-score (dimensionless, -0.5 to 0.5)” near -0.058, cut for the highest 2% near 0.35. This is one part of a sample in which the highest values are shown more often than they occur.
Tick true (1) if PBM 8-mer E-score is 0.04 or greater. Tick false (0) if PBM 8-mer E-score is less than 0.04.

stdin: Assess whether reported PBM 8-mer E-score for "CATTAATA" sits at 0.04 or higher.
stdout: true (1)

stdin: Assess whether reported PBM 8-mer E-score for "GATTAATA" sits at 0.04 or higher.
stdout: true (1)

stdin: Assess whether reported PBM 8-mer E-score for "AAATTTGA" sits at 0.04 or higher.
stdout: true (1)

stdin: Assess whether reported PBM 8-mer E-score for "AAAGCTCC" sits at 0.04 or higher.
stdout: false (0)

stdin: Assess whether reported PBM 8-mer E-score for "CGATTTAA" sits at 0.04 or higher.
stdout: true (1)

stdin: Assess whether reported PBM 8-mer E-score for "ATAATTGA" sits at 0.04 or higher.
stdout: true (1)

stdin: Assess whether reported PBM 8-mer E-score for "GGTCGAAC" sits at 0.04 or higher.
stdout: false (0)

stdin: Assess whether reported PBM 8-mer E-score for "TAAATCAA" sits at 0.04 or higher.
stdout: true (1)

stdin: Assess whether reported PBM 8-mer E-score for "AAATTTAA" sits at 0.04 or higher.
stdout: true (1)

stdin: Assess whether reported PBM 8-mer E-score for "CTTCGAGC" sits at 0.04 or higher.
stdout: false (0)

stdin: Assess whether reported PBM 8-mer E-score for "CAATATGC" sits at 0.04 or higher.
stdout: false (0)

stdin: Assess whether reported PBM 8-mer E-score for "GGAATAAA" sits at 0.04 or higher.
stdout: true (1)

stdin: Assess whether reported PBM 8-mer E-score for "CTAATTAA" sits at 0.04 or higher.
stdout: true (1)

stdin: Assess whether reported PBM 8-mer E-score for "CTGATTAA" sits at 0.04 or higher.
stdout: true (1)

stdin: Assess whether reported PBM 8-mer E-score for "AGTGTCTC" sits at 0.04 or higher.
stdout: false (0)

stdin: Assess whether reported PBM 8-mer E-score for "GTAATTAA" sits at 0.04 or higher.
stdout: true (1)

stdin: Assess whether reported PBM 8-mer E-score for "AAATACCG" sits at 0.04 or higher.
stdout: true (1)

stdin: Assess whether reported PBM 8-mer E-score for "GCCTCCCC" sits at 0.04 or higher.
stdout: false (0)

stdin: Assess whether reported PBM 8-mer E-score for "AACCTGGA" sits at 0.04 or higher.
stdout: false (0)

stdin: Assess whether reported PBM 8-mer E-score for "AGATTTAA" sits at 0.04 or higher.
stdout: true (1)

stdin: Assess whether reported PBM 8-mer E-score for "CATAGCGA" sits at 0.04 or higher.
stdout: false (0)

stdin: Assess whether reported PBM 8-mer E-score for "CCATACGC" sits at 0.04 or higher.
stdout: false (0)

stdin: Assess whether reported PBM 8-mer E-score for "CAGAGCCC" sits at 0.04 or higher.
stdout: false (0)

stdin: Assess whether reported PBM 8-mer E-score for "CAATATTC" sits at 0.04 or higher.
stdout: true (1)

stdin: Assess whether reported PBM 8-mer E-score for "GAATATGA" sits at 0.04 or higher.
stdout: true (1)

stdin: Assess whether reported PBM 8-mer E-score for "CATTAATC" sits at 0.04 or higher.
stdout: true (1)

stdin: Assess whether reported PBM 8-mer E-score for "TAAGGGCA" sits at 0.04 or higher.
stdout: false (0)

stdin: Assess whether reported PBM 8-mer E-score for "ACAGTGCA" sits at 0.04 or higher.
stdout: false (0)

stdin: Assess whether reported PBM 8-mer E-score for "ATAATTAA" sits at 0.04 or higher.
stdout: true (1)

stdin: Assess whether reported PBM 8-mer E-score for "AAATTTCA" sits at 0.04 or higher.
stdout: true (1)

stdin: Assess whether reported PBM 8-mer E-score for "GAGGAGTA" sits at 0.04 or higher.
stdout: false (0)

stdin: Assess whether reported PBM 8-mer E-score for "CTTTTGTC" sits at 0.04 or higher.
stdout: true (1)

stdin: Assess whether reported PBM 8-mer E-score for "GTAATTAC" sits at 0.04 or higher.
stdout: true (1)

stdin: Assess whether reported PBM 8-mer E-score for "CGTTAATA" sits at 0.04 or higher.
stdout: true (1)

stdin: Assess whether reported PBM 8-mer E-score for "GATTAACC" sits at 0.04 or higher.
stdout: false (0)

stdin: Assess whether reported PBM 8-mer E-score for "TAAAGGAA" sits at 0.04 or higher.
stdout: true (1)
